- System: Vero
- assayRemarks: Cytotoxicity against Chlorocebus aethiops (African green monkey) Vero cells after 72 hr
- Assay type: cell-based
- conditionSet: Chlorocebus sabaeus
pIC50: −log10 of the molar value.
Listed below: pIC50 values for each entry.

# compound, pIC50
records = [
    ("O=C(Cn1c2ccccc2c2nc3ccccc3nc21)N1N=C(c2cc3cc(O)ccc3o2)CC1c1cccc([N+](=O)[O-])c1 (centres undefined)", "< 3.74"),
    ("O=C(Cn1c2ccccc2c2nc3ccccc3nc21)N1N=C(c2cc3cc(O)ccc3o2)CC1c1ccccc1Cl (centres undefined)", "< 3.71"),
    ("O=C(Cn1c2ccccc2c2nc3ccccc3nc21)N1N=C(c2cc3cc(O)ccc3o2)CC1c1ccccc1O (centres undefined)", "< 3.64"),
]

Just so you know, measured pIC50 for O=C(Cn1c2ccccc2c2nc3ccccc3nc21)N1N=C(c2cc3cc(O)ccc3o2)CC1/C=C/c1ccccc1 (centres undefined) came out at < 3.69

---

- Tested on: Vero
- assayRemarks: Cytotoxicity against Chlorocebus aethiops (African green monkey) Vero cells after 72 hr
- Assay type: cell-based
- conditionSet: Chlorocebus sabaeus
Entries and their IC50

The cases that follow already have their IC50 on record.
# compound, IC50
data = [
    ("O=C(Cn1c2ccccc2c2nc3ccccc3nc21)N1N=C(c2cc3cc(O)ccc3o2)CC1c1ccccc1[N+](=O)[O-] (configuration not stated)", "> 144 µM"),
    ("O=C(Cn1c2ccccc2c2nc3ccccc3nc21)N1N=C(c2cc3cc(O)ccc3o2)CC1c1ccccc1 (configuration not stated)", "> 197 µM"),
    ("O=C(Cn1c2ccccc2c2nc3ccccc3nc21)N1N=C(c2cc3cc(O)ccc3o2)CC1c1ccco1 (configuration not stated)", "> 198 µM"),
    ("CN(C)c1ccc(C2CC(c3cc4cc(O)ccc4o3)=NN2C(=O)Cn2c3ccccc3c3nc4ccccc4nc32)cc1 (configuration not stated)", "> 216 µM"),
    ("CC(=O)c1ccccc1C1CC(c2cc3cc(O)ccc3o2)=NN1C(=O)Cn1c2ccccc2c2nc3ccccc3nc21 (configuration not stated)", "> 220 µM"),
]

Reported IC50 of CO[C@H]1/C=C/O[C@@]2(C)Oc3c(C)c(O)c4c(O)c(c(/C=N/N5CCN(C)CC5)c(O)c4c3C2=O)NC(=O)/C(C)=C\C=C\[C@H](C)[C@H](O)[C@@H](C)[C@@H](O)[C@@H](C)[C@H](OC(C)=O)[C@@H]1C : > 77.4 µM

Lab book: IC50 of COc1ccc(C2CC(c3cc4cc(O)ccc4o3)=NN2C(=O)Cn2c3ccccc3c3nc4ccccc4nc32)cc1 (configuration not stated) noted as > 226 µM

Entry O=C(Cn1c2ccccc2c2nc3ccccc3nc21)N1N=C(c2cc3cc(O)ccc3o2)CC1c1ccc(Cl)cc1 (configuration not stated) ; IC50 = > 205 µM

The recorded IC50 for entry COc1c(N2CCNC(C)C2)c(F)cc2c(=O)c(C(=O)O)cn(C3CC3)c12 (configuration not stated) equals > 160 µM

Reported IC50 of COc1ccc(C2CC(c3cc4cc(O)ccc4o3)=NN2C(=O)Cn2c3ccccc3c3nc4ccccc4nc32)c(O)c1 (configuration not stated) : > 206 µM

Query O=C(Cn1c2ccccc2c2nc3ccccc3nc21)N1N=C(c2cc3cc(O)ccc3o2)CC1c1ccc(O)cc1 (configuration not stated) yields IC50 of > 245 µM

Input COc1ccccc1C1CC(c2cc3cc(O)ccc3o2)=NN1C(=O)Cn1c2ccccc2c2nc3ccccc3nc21 (configuration not stated) . Output IC50: > 226 µM
